- Tested on: PC-3 prostate
- PROTOCOL: NCI tumour cell line growth inhibition, 48 h
OBSERVABLE: GI50

Cc1ccc(S(=O)(=O)c2nc(-c3ccccc3)oc2S(C)(=O)=O)cc1: 10.4 µM
Cn1c(=O)n(C)c2cc(CNCCNc3ccnc4cc(Cl)ccc34)ccc21: 34.6 µM

--- query ---
Fill in: GI50 of CCCC1(CN2c3ccccc3Sc3ccc(Cl)cc32)CCN(CC)C1 (stereo not drawn) is ___ 1.68 µM

====

- Test system: NCI-H460 lung
- PROTOCOL: NCI tumour cell line growth inhibition, 48 h
Could you please report measured TGI for the items listed next?

Examples from the recorded data:
COc1ccc(Nc2nc(Nc3cc(C)[nH]n3)c3cc(OC)c(OC)cc3n2)cc1: 2.09 µM
COC/N=C(\NC#N)NCOC: > 100 µM
N=c1c2ccccc2sc2nc3ccccc3n12: > 100 µM

# return TGI for each item in the list
1. O=C(Cn1cc(Br)c(=O)[nH]c1=O)c1ccc(-c2ccccc2)cc1
2. COc1cc(/C=C2\C[C@H]3[C@@H]4CCC5=CC(=O)CC[C@]5(C)[C@H]4CC[C@]3(C)C2=O)cc(OC)c1OC
3. O=[N+]([O-])C(/C(Cl)=C(\Cl)Br)=C(/Cl)SCc1ccccc1
4. N#Cc1c2ccc([N+](=O)[O-])cc2c(=O)n2c1[nH]c1ccc(C(F)(F)F)cc12
5. FC(F)(F)c1ccc(-c2nn3ncccc3c2-c2ccnc(Nc3ccc4c(c3)OCCO4)n2)cc1
6. CC1=Nc2ccccc2SC(c2c(Cl)cccc2Cl)C1 (stereo not drawn)
7. CC1(C)OCC(C2OC3OC(C)(C)OC3C2c2ccccc2)O1 (stereo not drawn)
8. C/C(=C(/c1ccccc1)c1ccc(OCC(O)CNCCN2CCOCC2)cc1)c1ccccc1 (stereo not drawn)

1: > 48 µM; 2: > 100 µM; 3: 30.5 µM; 4: > 100 µM; 5: > 25 µM; 6: 3.26 µM; 7: > 100 µM; 8: 3.4 µM

Lab note: each compound below needs its TGI filled in.
1. C=C1C(=O)O[C@H]2[C@H]1CC/C(COC(=O)NCc1ccc(Cn3c(=O)sn(CCCCC)c3=O)cc1)=C\CC[C@@]1(C)O[C@@H]21
2. O=c1[nH]ncc2[nH]c3c4ccccc4ccc3c12

1: 12.5 µM; 2: > 100 µM

====

- Tested on: NCI-H460 lung
- PROTOCOL: NCI tumour cell line growth inhibition, 48 h
OBSERVABLE: TGI

Consider the worked cases shown below.
O=C(c1ccccc1)N1C(=O)N(c2ccccc2)C(=Nc2ccccc2)C1=Nc1ccccc1: > 100 µM
COC(=O)c1c(CC(Cc2ccc3c(c2)CCCC3)C(=O)O)ccc2c1CCCC2 (stereo not given): 47.9 µM
Nc1c(C(=O)c2cccc(C#CCN3CCCCC3)c2)cnn1-c1ccc(F)cc1: > 25 µM
O=C(N/N=C\c1cccc2ccccc12)Nc1ccccc1: > 100 µM

Kindly consider the entry below.
Give the measured TGI of CCn1cc(/C=C2\Oc3cc(OCC#N)ccc3C2=O)c2cc(OC)ccc21 . > 100 µM

====

- Tested on: HT29 colon
- PROTOCOL: NCI tumour cell line growth inhibition, 48 h; in the data active means GI50 below about 0.43 µM; inactive means the rest
Answer with one of the outcomes given here: active, inactive

COc1cc(C2=NN(C(C)=O)C(c3cc(OC)c(OC)c(OC)c3)C2)ccc1O (stereo not given): active
CCOc1cc(/C=C/C(=O)C(C(=O)/C=C/c2ccc(OC(=O)CNc3nc4ccccc4[nH]3)c(OCC)c2)C(=O)CNc2nc3ccccc3[nH]2)ccc1OC(=O)CNc1nc2ccccc2[nH]1: inactive
CCCCCCNCCCNc1c2cc(OC)ccc2nc2cccc([N+](=O)[O-])c12: active
C/C(=C(/c1ccccc1)c1ccc(OCC(O)CNCCN2CCOCC2)cc1)c1ccccc1 (stereo not given): inactive
O=C(NN1C(=O)CSC1c1cccc(Cl)c1)C(O)c1ccccc1 (stereo not given): inactive

// return assay outcome for CC(=O)/C=C/c1ccc(Nc2c3ccccc3nc3occ(Cl)c23)cc1 inactive

What do you have for Cc1cc(NCc2cc(Nc3ccnc4cc(Cl)ccc34)ccc2F)nc(N2CCOCC2)n1 ? inactive

====

- System: DMS 114 small cell lung
- PROTOCOL: NCI tumour cell line growth inhibition, 48 h
Kindly state TGI for each of the entries shown.

CN(C)c1ccc(/C=C(\NC(=O)c2ccccc2)c2nc3ccc4c(c3[nH]2)C(=O)c2ccccc2C4=O)cc1: > 100 µM
O=C1CCC2(c3ccccc3)Nc3ccccc3N12 (stereo not drawn): > 100 µM

Give the measured TGI of O=C(NN1C(=O)C(Cl)C1c1cccc([N+](=O)[O-])c1)c1ccccc1O (stereo not drawn) . > 100 µM

====

- Tested on: HT29 colon
- PROTOCOL: NCI tumour cell line growth inhibition, 48 h
Give measured TGI for each item. Keep answers brief.

Cc1cn(-c2cccc(NC(=O)c3ccc(C)c(Nc4nccc(-c5cccnc5)n4)c3)c2)cn1: 3.74 µM

Below are some compounds; for each one, tell me its TGI.
1. CCSc1ccc([C@@H]2[C@@H](O)C(=O)N2c2cc(OC)c(OC)c(OC)c2)cc1
2. O=Cc1ccc(OC[C@H]2COC(=O)N2)cc1
3. O=c1[nH]ncc2[nH]c3c4ccccc4ccc3c12

11.5 µM
> 100 µM
> 100 µM

====

Task for the reader: assign each of the following molecules its reported TGI.
- System: SK-MEL-28 melanoma
- PROTOCOL: NCI tumour cell line growth inhibition, 48 h

Cc1ccc2nc3n[nH]c(N)c3nc2c1: > 100 µM
COc1ccc(-c2nc(-c3nc4cc(Cl)c(F)cc4[nH]3)c3ccccn23)cc1: > 100 µM
CC(=O)c1cccc(NC(=O)C(=O)c2c(O)c3ccccc3oc2=O)c1: > 100 µM
CCC(=O)N/S(=N/S(=O)(=O)c1ccccc1)C(Cl)(Cl)Cl (centres undefined): > 100 µM
COC(=O)CCC1(CCC(=O)OC)CCCCCCC(CCC(=O)OC)(CCC(=O)OC)C(=O)C1=O: > 100 µM
Nc1nc2ccc(Sc3ccc4nc(N)[nH]c(=O)c4c3)cc2c(=O)[nH]1: > 100 µM

Please state TGI for every molecule in the list that follows.
1. CN(C)N1C(=O)SCC(c2ccccc2)(c2ccccc2)C1=O
2. Cc1cccc2[nH]c3c(c(O)cc4[nH]c5cccc(C)c5c(=O)c43)c(=O)c12
3. Clc1ccc2c(NCCCCN3OC3c3ccccc3)ccnc2c1 (centres undefined)
4. C[C@@H](C[C@H]1OC(C)(C)O[C@@H]1C(C)(C)O)[C@H]1CC=C2[C@]3(C)[C@H](O)C[C@H]4C(C)(C)[C@H](O)CC[C@]4(C)[C@H]3CC[C@]21C

> 100 µM
> 10 µM
7.42 µM
18.6 µM

Could you report TGI for every entry in the following list?
1. CC1(C)COC2C(N(Cc3ccccc3)Cc3ccccc3)C(=O)N21 (centres undefined)
2. CN(Cc1ccc(F)cc1)c1ccc(CO)c(Cl)c1
3. COc1ccc(O)c(C(=O)CCC(=O)O)c1
4. CCOc1cc(/C=C/C(=O)C(C(=O)/C=C/c2ccc(OC(=O)CNc3nc4ccccc4[nH]3)c(OCC)c2)C(=O)CNc2nc3ccccc3[nH]2)ccc1OC(=O)CNc1nc2ccccc2[nH]1

1: > 100 µM; 2: > 100 µM; 3: > 100 µM; 4: 3.56 µM

====

- Tested on: OVCAR-3 ovarian
- PROTOCOL: NCI tumour cell line growth inhibition, 48 h
Would you kindly list TGI for each of these molecules?

Solved entries:
CCOc1ccc(N=C(NC(=O)c2ccccc2)SC)cc1: > 100 µM
CCCCCCC(O)CC[C@H]1CCC[C@@H](C)N1 (some centres not stated): < 10 µM
NC(=O)CSc1c2cc(O)ccc2nc2ccc(O)cc12: > 10 µM
O=c1[nH]nc(Cc2ccccc2)n1/N=C/c1ccco1: > 100 µM
COC(=O)C1Cc2c(OC)ccc(OC)c2C(O)C1C(=O)OC (configuration not stated): > 100 µM
C=C1C(=O)OC2C1CCC(C)C1(O)C=CC(=O)C21C (configuration not stated): > 10 µM
O=C(NN1C(=O)C(Cl)C1c1cccc([N+](=O)[O-])c1)c1ccccc1O (configuration not stated): > 100 µM
CC(C)=NOC(=O)CNC(=O)C(Cc1ccccc1)NC(=O)C(C)NC(=O)OC(C)(C)C (configuration not stated): > 100 µM

Provide the reported TGI of each entry below, same order.
1. CC1(C)COC2C(N(Cc3ccccc3)Cc3ccccc3)C(=O)N21 (configuration not stated)
2. CN(C)N1C(=O)SCC(c2ccccc2)(c2ccccc2)C1=O
3. COc1ccc(-c2cnnn2-c2nonc2-n2cccc2)cc1OC
4. CCOC(=O)/C=C/c1c(C)[nH]c(=O)[nH]c1=O
5. O=C(Nc1cccc(F)c1)c1cc2ccc(O)cc2oc1=Nc1cccc(F)c1
6. Cc1cc(N/N=C/c2nc(-c3ccc(Cl)cc3)oc2C)c2cc(Br)ccc2n1

> 100 µM
> 100 µM
> 100 µM
> 250 µM
> 100 µM
3.89 µM

Record TGI for all entries; do not skip any.
1. COc1c2c(nc3ccccc13)-c1cc(C(CC(=O)OC(C)(C)C)C(=O)OC(C)C)c(CO)c(=O)n1C2 (configuration not stated)
2. N#CC1=C(N)N(/N=C/c2ccccc2)C(c2ccccc2)C1(C#N)C#N (configuration not stated)
3. COc1cc(C2c3cc4c(cc3OC(NNS(=O)(=O)c3ccc(C)cc3)C2C)OCO4)cc(OC)c1OC (configuration not stated)
4. COC(=O)CCC1(CCC(=O)OC)CCCCCCC(CCC(=O)OC)(CCC(=O)OC)C(=O)C1=O
5. C/C(=N\NC(=S)N1CCC(N2CCCCC2)CC1)c1ccccn1

["> 100 µM", "17.4 µM", "7.78 µM", "> 100 µM", "13.4 µM"]

Items follow; give TGI for each.
1. O=C(/C=C1\Sc2ccccc2N=C1CC(=O)c1ccccc1)c1ccccc1
2. CCc1ccc2[nH]c(O)c(C3=Nc4ccccc4C3=O)c2c1

1: 29.5 µM; 2: 51.8 µM
